# credit: the kinase profiling compilation of Christmann-Franck et al. (2016)

molecular target: EPHA6 (human); assay: radiometric filter-binding kinase assay, Kinase HotSpot; conditions: compound 0.5 µM; ATP 10 µM
EXPERIMENTAL_READOUT: residual activity (%)
Supply the numeric figure in %, leaving out any unit text.

Use these answered entries as a reference point.
{"MOL": "COc1cc2c(N3CCN(C(=O)Nc4ccc(OC(C)C)cc4)CC3)ncnc2cc1OCCCN1CCCCC1", "residual activity (%)": 103}
{"MOL": "COc1cc2c(cc1OC)-c1[nH]nc(Nc3cccc(F)c3)c1C2", "residual activity (%)": 82.7}

Turning now to a further record.
What does the data say about its residual activity? Entry: COc1cccc(-c2cc(=O)c3ccccc3o2)c1N
81.2
